Measured values drawn from ChEMBL document CHEMBL1151392 for this set.

- Species on record: Mus musculus
- methodDescription: Toxicity in NMRI mouse assessed as irritant dose 50 causing ear redness after 5 hours assessed per ear
- Format: organism-based
- conditions: in vivo, topical_or_ocular
A collection of molecules and their measured Activity

Would you please look over these solved cases?
COC(=O)Cc1ccc(O)c(OC)c1: 25 nmol
C=C(C)[C@]12C[C@@H](C)[C@@]34O[C@](CCCCCCCCCCCCC)(O[C@@H]1[C@@H]3C=C(COC(=O)CCCCCCCCCCCCC)C[C@]1(O)C(=O)C(C)=C[C@@H]41)O2: > 60 nmol

Next up:
Input C=C(C)[C@]12C[C@@H](C)[C@@]34O[C@](CCCCCCCCCCCCC)(O[C@@H]1[C@@H]3C=C(COC(=O)Cc1cc(OC)cc(OC)c1)C[C@]1(O)C(=O)C(C)=C[C@@H]41)O2 . Output Activity: > 5 nmol

* * *

- Species on record: Mus musculus
- methodDescription: Toxicity in NMRI mouse assessed as irritant dose 50 causing ear redness after 5 hours assessed per ear
- Format: organism-based
- conditions: in vivo, topical_or_ocular
A collection of compounds and their measured Activity

Would you please look over these solved cases?
C=C(C)[C@]12C[C@@H](C)[C@@]34O[C@](Cc5ccccc5)(O[C@@H]1[C@@H]3C=C(COC(=O)Cc1ccccc1)C[C@]1(O)C(=O)C(C)=C[C@@H]41)O2: 1.7 ×10⁻³ nmol
C=C(C)[C@]12C[C@@H](C)[C@@]34O[C@](Cc5ccccc5)(O[C@@H]1[C@@H]3C=C(COC(=O)Cc1cc(OC)cc(OC)c1)C[C@]1(O)C(=O)C(C)=C[C@@H]41)O2: 6.2 ×10⁻⁴ nmol
C=C(C)[C@]12C[C@@H](C)[C@@]34O[C@](C)(O[C@@H]1[C@@H]3C=C(CO)C[C@]1(O)C(=O)C(C)=C[C@@H]41)O2: > 100 nmol
C=C(C)[C@]12C[C@@H](C)[C@@]34O[C@](Cc5ccccc5)(O[C@@H]1[C@@H]3C=C(COC(C)=O)C[C@]1(O)C(=O)C(C)=C[C@@H]41)O2: > 10 nmol

Next up:
Input C=C(C)[C@]12C[C@@H](C)[C@@]34O[C@](C)(O[C@@H]1[C@@H]3C=C(COC(=O)Cc1cc(OC)cc(OC)c1)C[C@]1(O)C(=O)C(C)=C[C@@H]41)O2 . Output Activity: 2.6 ×10⁻² nmol

* * *

A collection of compounds and their measured Activity
- Organism: Mus musculus
- methodDescription: Toxicity in NMRI mouse assessed as irritant dose 50 causing ear redness after 5 hours assessed per ear
- Format: organism-based
- conditions: in vivo, topical_or_ocular

Input C=C(C)[C@]12C[C@@H](C)[C@@]34O[C@](Cc5ccccc5)(O[C@@H]1[C@@H]3C=C(COC(=O)CCCCC)C[C@]1(O)C(=O)C(C)=C[C@@H]41)O2 . Output Activity: 8.9 ×10⁻² nmol

Input C=C(C)[C@]1(O)C[C@@H](C)[C@@]2(O)[C@@H](C=C(CO)C[C@]3(O)C(=O)C(C)=C[C@@H]23)[C@H]1O . Output Activity: > 100 nmol

Input C=C(C)[C@]12C[C@@H](C)[C@@]34O[C@](Cc5ccccc5)(O[C@@H]1[C@@H]3C=C(COC(=O)Cc1ccc(O)c(OC)c1)C[C@]1(O)C(=O)C(C)=C[C@@H]41)O2 . Output Activity: 1.6 ×10⁻⁵ nmol

* * *

- Species on record: Mus musculus
- methodDescription: Toxicity in NMRI mouse assessed as irritant dose 50 causing ear redness after 24 hours assessed per ear
- Type: organism-based
- conditions: in vivo
assayMetric: Activity

Would you please look over these solved cases?
C=C(C)[C@]12C[C@@H](C)[C@@]34O[C@](Cc5ccccc5)(O[C@@H]1[C@@H]3C=C(COC(=O)c1ccccc1)C[C@]1(O)C(=O)C(C)=C[C@@H]41)O2: > 10 nmol
C=C(C)[C@]12C[C@@H](C)[C@@]34O[C@](CCCCCCCCCCCCC)(O[C@@H]1[C@@H]3C=C(CO)C[C@]1(O)C(=O)C(C)=C[C@@H]41)O2: 0.8 nmol

Input C=C(C)[C@]12C[C@@H](C)[C@@]34O[C@](CCCCCCCCCCCCC)(O[C@@H]1[C@@H]3C=C(COC(=O)Cc1cc(OC)cc(OC)c1)C[C@]1(O)C(=O)C(C)=C[C@@H]41)O2 . Output Activity: > 5 nmol

Input C=C(C)[C@]12C[C@@H](C)[C@@]34O[C@](CCCCCCCCCCCCC)(O[C@@H]1[C@@H]3C=C(COC(=O)CCCCCCCCCCCCC)C[C@]1(O)C(=O)C(C)=C[C@@H]41)O2 . Output Activity: > 60 nmol
